The following binders are shown together with reported Kd values.
- SYSTEM_UNDER_TEST: T1, human-CD40 monomer (human, UniProt P25942 21-193, limits assumed)
- T1 construct: also called hCD40-monomer; human-CD40-monomer protein
- ASSAY_NOTES: SPR 2 pt screen, Ab on protein A
- Procedure: The VH sequences were formatted in the context of an IgG1.3f isotype. The Vκ sequences were formatted as a full light chain with a common CL sequence. All 55 combinations of these humanized HC and LC constructs, as well as the chimeric Y1238 molecule were expressed as 3 ml supernatants for binding analysis by SPR. […]
Report as a plain number; the unit nM is understood.

- humanized Y1238 hz19 (hz-HC4 / hz-LC4), IgG1.3f (antibody, V domains shown, IgG1.3f heavy constant, common CL; expression supernatant; also called Sup 19) VH: QVQLVQSGAEVKKPGASVKVSCKASGYAFTNYLIEWVRQAPGQGLEWMGVINPGSGGTNYNEKFKGRVTMTADKSISTAYMELSRLRSDDTAVYYCARSQLGRRFDYWGQGTLVTVSS VL: DIQMTQSPSSLSASVGDRVTITCKASQDVRTGVAWYQQKPGQSPKLLIYSASYRNTGVPSRFSGSRSGTDFTFTISSLQAEDIAVYYCQQHYSPPYTFGGGTKVEIK: 6.3

Next:
Query: Look up Kd: humanized Y1238 hz33 (hz-HC7 / hz-LC3), IgG1.3f (antibody, V domains shown, IgG1.3f heavy constant, common CL; expression supernatant; also called Sup 33) VH: QVQLVQSGAEVVKPGASVKVSCKASGYAFTNYLIEWVRQRPGQGLEWMGVINPGSGGTNYNEKFKGRVTMTADKSSSTAYMQLSRLRSDDTAVYFCARSQLGRRFDYWGQGTLVTVSS VL: DIQMTQSPSSLSASVGDRVTITCKASQDVRTGVAWYQQKPGQSPKLLIYSASYRNTGVPSRFSGSRSGTDFTFTISSLQPEDIAVYYCQQHYSPPYTFGGGTKVEIK
Reply: 8.7
